- Test system: GIST-T1 cell line
MEASURED METRIC: GI50 (nM)

Here are 2 molecules together with their reported answers.
• NC(=O)Nc1cc(C#Cc2cccc(F)c2)sc1C(=O)N[C@H]1CCCNC1 = 36
• Cc1ccc(NC(=O)c2ccc(CN3CCN(C)CC3)cc2)cc1Nc1nccc(-c2cccnc2)n1 = 64

[1] Cc1nc(Nc2ncc(C(=O)Nc3c(C)cccc3Cl)s2)cc(N2CCN(CCO)CC2)n1
[2] CCN(CC)CCNC(=O)c1c(C)[nH]c(/C=C2\C(=O)Nc3ccc(F)cc32)c1C
Request: Among 1 and 2 , which shows a numerically higher GI50 result? To answer, give the label that identifies your chosen option.
Result: 1

----------
- System: GIST-T1 cell line
- METHOD DESCRIPTION: Growth inhibition of gastrointestinal stromal tumor cell line GIST-T1 (Celltiter glo)
- Format: cell-based
- DETAILS: Homo sapiens, GISTT1; GIST-T1 proliferation; read-out: IC50 value in GIST-T1 cells
MEASURED METRIC: IC50 (nM)
Express it in nM; write the number only.

Request: In one line, give reported IC50 of the entry NC(=O)Nc1cc(C#Cc2cccc(F)c2)sc1C(=O)N[C@H]1CCCNC1 [PHI-101] .
Result: 36
